Biological target: T1, 4H1626-AA
T1 chain: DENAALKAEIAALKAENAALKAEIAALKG
Test: two-hybrid library CCmax;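 further: natural log of median RNA to DNA barcode read ratio; higher means stronger binding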
Details: mean of both orientations
OBSERVATION TYPE: interaction score

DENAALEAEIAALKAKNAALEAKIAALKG [4H1142-AA] : -0.818
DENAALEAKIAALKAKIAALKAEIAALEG [4H1385-AA] : -1.57
DENAALKAEIAALEAKNAALKAKIAALEG [4H1597-AA] : -1.36
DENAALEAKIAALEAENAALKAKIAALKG [4H1310-AA] : -0.373
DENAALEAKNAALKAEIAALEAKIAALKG [4H1478-AA] : -1.52
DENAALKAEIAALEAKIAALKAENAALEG [4H1579-AA] : -1.19
